Target: T1, human GIP receptor (human, UniProt P48546 22-466)
T1 sequence (looked up): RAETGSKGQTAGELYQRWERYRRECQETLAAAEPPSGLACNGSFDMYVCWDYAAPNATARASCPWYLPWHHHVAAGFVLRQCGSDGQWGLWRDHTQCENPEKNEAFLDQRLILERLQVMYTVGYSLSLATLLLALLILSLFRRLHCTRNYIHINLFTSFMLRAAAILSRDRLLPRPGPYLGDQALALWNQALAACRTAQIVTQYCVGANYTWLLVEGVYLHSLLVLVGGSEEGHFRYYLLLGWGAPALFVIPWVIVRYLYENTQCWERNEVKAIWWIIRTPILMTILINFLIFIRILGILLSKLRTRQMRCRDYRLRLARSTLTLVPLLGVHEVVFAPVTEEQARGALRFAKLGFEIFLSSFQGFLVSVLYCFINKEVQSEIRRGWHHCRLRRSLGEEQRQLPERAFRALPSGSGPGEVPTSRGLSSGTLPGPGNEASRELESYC
Experiment: cell-based or functional assay
Bridge positions count the residues as written; N and C are the ends. Square brackets hold non-standard residues; d marks the D form. Ends that are not written are not given here. * marks the point of attachment. Acetyl(2-(4-imidazolyl)) = O=C(Cc1c[nH]cn1)*; Aib = CC(C)(N)C(=O)O
READOUT_KIND: In vitro activity compared with native peptide (%) vs GIP (cAMP EC50)
All answers are understood in %, so give the number only.

Query block: Specify reported In vitro activity compared with native peptide (%) vs GIP (cAMP EC50) for the binder shown: H[Aib]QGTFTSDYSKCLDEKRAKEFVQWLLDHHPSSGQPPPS (bridge 16-20) [triple agonist of SEQ ID NO: 65]
Result block: 11.6

Query block: Specify reported In vitro activity compared with native peptide (%) vs GIP (cAMP EC50) for the binder shown: {Acetyl(2-(4-imidazolyl))}-[Aib]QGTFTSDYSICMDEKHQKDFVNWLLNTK (bridge 15-19) [triple agonist of SEQ ID NO: 59]
Result block: 4

Query block: Specify reported In vitro activity compared with native peptide (%) vs GIP (cAMP EC50) for the binder shown: [Acetyl(2-(4-imidazolyl))][Aib]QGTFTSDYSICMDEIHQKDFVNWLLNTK (bridge 16-20) [triple agonist of SEQ ID NO: 49]
Result block: 3.3

Each recorded value in this set is attributed to patent US20240293512A1.
